Item-by-item account of PET hydrolysis product formed
Assay: PET hydrolysis product formed (TPA+MHET+BHET, UV-Vis) per mg enzyme (mmol/mg enzyme); higher = more PET depolymerisation activity; extreme values may be limits of the assay
Details: PET substrate: cryPow; 60 °C; pH 5.5; 2 h
Keep the answer to the number alone.

Name the reported PET hydrolysis product formed value associated with the sequence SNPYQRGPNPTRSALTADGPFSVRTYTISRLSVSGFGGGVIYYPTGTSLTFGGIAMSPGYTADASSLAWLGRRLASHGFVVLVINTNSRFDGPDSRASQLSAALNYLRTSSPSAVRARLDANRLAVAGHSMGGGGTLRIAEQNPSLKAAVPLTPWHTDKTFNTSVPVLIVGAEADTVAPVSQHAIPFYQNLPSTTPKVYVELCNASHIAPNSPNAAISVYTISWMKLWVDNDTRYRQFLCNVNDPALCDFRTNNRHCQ [LCC-ICCG RIP]
0.0235

Name the reported PET hydrolysis product formed value associated with the sequence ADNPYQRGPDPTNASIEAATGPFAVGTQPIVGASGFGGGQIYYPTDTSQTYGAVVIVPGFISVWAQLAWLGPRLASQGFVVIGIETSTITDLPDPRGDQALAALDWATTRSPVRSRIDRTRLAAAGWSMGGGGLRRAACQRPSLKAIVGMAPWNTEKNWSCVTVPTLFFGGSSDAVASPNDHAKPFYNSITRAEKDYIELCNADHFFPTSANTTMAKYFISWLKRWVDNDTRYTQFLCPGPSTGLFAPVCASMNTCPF [CaPETaseM9]
0.0306

Name the reported PET hydrolysis product formed value associated with the sequence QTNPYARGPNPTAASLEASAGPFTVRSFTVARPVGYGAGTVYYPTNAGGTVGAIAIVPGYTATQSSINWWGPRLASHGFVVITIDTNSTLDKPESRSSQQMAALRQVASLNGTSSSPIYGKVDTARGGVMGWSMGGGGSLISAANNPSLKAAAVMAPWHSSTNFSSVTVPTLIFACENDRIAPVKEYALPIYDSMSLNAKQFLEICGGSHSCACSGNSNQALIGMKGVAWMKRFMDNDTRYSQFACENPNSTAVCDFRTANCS [HotPETase]
0.0775

Here is the next item to consider.
Name the reported PET hydrolysis product formed value associated with the sequence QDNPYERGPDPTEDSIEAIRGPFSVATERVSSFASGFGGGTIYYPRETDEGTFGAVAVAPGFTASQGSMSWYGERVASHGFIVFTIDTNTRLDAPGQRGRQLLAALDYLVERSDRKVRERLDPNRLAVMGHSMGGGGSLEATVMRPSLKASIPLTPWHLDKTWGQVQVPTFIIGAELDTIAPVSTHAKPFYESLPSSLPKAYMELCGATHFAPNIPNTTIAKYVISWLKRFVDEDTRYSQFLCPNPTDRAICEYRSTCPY [Cut190*SS]
0
